Molecular target: T1, rat APJ receptor (rat, UniProt Q9JHG3 1-377)
T1 sequence (looked up): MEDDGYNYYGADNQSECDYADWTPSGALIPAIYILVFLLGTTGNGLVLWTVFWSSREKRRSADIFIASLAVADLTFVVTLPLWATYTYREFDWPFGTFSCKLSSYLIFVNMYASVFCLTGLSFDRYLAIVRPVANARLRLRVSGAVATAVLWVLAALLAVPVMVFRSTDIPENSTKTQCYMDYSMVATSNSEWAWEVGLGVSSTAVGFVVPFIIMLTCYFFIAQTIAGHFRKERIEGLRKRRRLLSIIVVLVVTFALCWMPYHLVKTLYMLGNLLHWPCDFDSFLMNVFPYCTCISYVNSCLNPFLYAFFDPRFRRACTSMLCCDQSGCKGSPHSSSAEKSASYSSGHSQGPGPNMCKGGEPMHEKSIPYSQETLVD
Assay: cell-based or functional assay
Starred links: 1 amine or outer side, 2 acyl side, 3 side chain; linkers in the order of their positions; H or OH if unused. Non-standard residues stand in square brackets, D forms with d. *: point of attachment. AC4Abu = α-carboxy-4-aminobutyric acid, O=C(C(CCN[*:1])C(=O)[*:3])[*:2]; Oic = O=C(O)[C@@H]1C[C@@H]2CCCC[C@@H]2N1; Phe(4-Cl) = N[C@@H](Cc1ccc(Cl)cc1)C(=O)O; γGlu = O=C(O)[C@H](CCC(=O)[*:2])N[*:1]; Igl = N[C@H](C(=O)O)C1Cc2ccccc2C1; NMeR = CN[C@@H](CCCNC(=N)N)C(=O)O; Palmitoyl = CCCCCCCCCCCCCCCC(=O)*; αMeL = CC(C)C[C@](C)(N)C(=O)O; β3hP = O=C(O)C[C@@H]1CCCN1; Nle = CCCC[C@H](N)C(=O)O; Dap = NC[C@H](N)C(=O)O; AEEA = NCCOCCOCC(=O)O
Threshold 6 nM: EC50 Rat APJ Receptor strictly smaller gives YES, otherwise NO.

Example cases with answers are listed next.
{"binder": "Palmitoyl-[AC4Abu][AEEA][AEEA][dQ]RP[NMeR][αMeL]SH[Igl]G[Oic][Nle][β3hP][Phe(4-Cl)]-OH [SEQ ID NO: 640]", "classAssignment": "NO"}
{"binder": "Palmitoyl-[γGlu][AEEA][AEEA][dQ]RP[NMeR][αMeL]SH[Dap]G[Oic][Nle][β3hP][Phe(4-Cl)]-OH [SEQ ID NO: 639]", "classAssignment": "NO"}
{"binder": "XXXQRPRLSHKGPXPF ({Sebacicacid}[AC4Abu][Aeea][Aeea]QRP[NMeArg]LSHKGP[Nle]P[4-Cl-F]{COOH}) [SEQ ID NO: 509]", "classAssignment": "YES"}

Now examine the next entry.
Ask: Quick check: EC50 Rat APJ Receptor of RLIEDICLPRWGCLWXXQRPRLSHKGPXPF ({Acetyl-NH}RLIEDICLPRWGCLW[Aeea][Aeea]QRP[NMeArg]LSHKGP[Nle]P[4-Cl-F]{COOH}) [SEQ ID NO: 91] under 6 nM?
Reply: YES

meta.source: patent US10941182
